molecular target: human orexin 1 receptor (Homo sapiens); test: Human orexin 1 receptor radioligand binding; details: human orexin 1 receptor radioligand binding; averages of 2-20 runs; read-out: hOX1 Ki
I'd be grateful if you could share measured pKi for these entries.
Entry type: numeric. Quantity: pKi, the -log10 of concentration in molar units.

Q: I have this molecule here, Cc1ccc(-c2ncccn2)c(C(=O)N2CCC[C@@H](Oc3ccc(C(F)(F)F)cn3)[C@@H]2C)n1 [Example 213] , and I need its recorded pKi.
A: 7.17

Q: I have this molecule here, COc1ccc(C(=O)N2CCC[C@@H](Nc3ccc(C(F)(F)F)cn3)[C@@H]2C)c(-n2nccn2)c1 [Example 97] , and I need its recorded pKi.
A: 7.47

Q: I have this molecule here, COc1ccc(-n2nccn2)c(C(=O)N2CCC[C@@H](Nc3cnc(C(F)(F)F)cn3)[C@@H]2C)c1 (relative stereo) [Example 184] , and I need its recorded pKi.
A: 8.22

Q: I have this molecule here, C[C@H]1[C@H](Nc2nc3ccccc3o2)CCCN1C(=O)c1ccc(F)cc1-c1ncccn1 (relative stereo) [Example 206] , and I need its recorded pKi.
A: 7.80

Q: I have this molecule here, C[C@H]1[C@H](Nc2ccc(C(F)(F)F)cn2)CCCN1C(=O)c1ccc(F)cc1-n1nccn1 (relative stereo) [Example 192] , and I need its recorded pKi.
A: 7.60

Q: I have this molecule here, C[C@H]1[C@H](Nc2ccc(C(F)(F)F)cn2)CCCN1C(=O)c1cccc(F)c1-c1ncccn1 (relative stereo) [Example 189] , and I need its recorded pKi.
A: 8.30

Q: I have this molecule here, C[C@H]1[C@H](Oc2ncc(C(F)(F)F)cc2F)CCCN1C(=O)c1ccccc1-c1ncc(F)cn1 [Example 156] , and I need its recorded pKi.
A: 7.52

* * *

I'd be grateful if you could share measured Ki for these entries.
biological target: rat orexin 1 receptor (Rattus norvegicus, UniProt P56718); assay: Rat orexin 1 receptor radioligand binding; details: rat orexin 1 receptor radioligand binding; averages of 2-20 runs; read-out: rOX1 Ki
Report only the number, with the unit nM understood.

Q: Field: Ki (rat orexin 1 receptor (Rattus norvegicus, UniProt P56718)). Entry: C[C@H]1[C@H](Oc2ccc(C(F)(F)F)cn2)CCCN1C(=O)c1ccc(F)cc1-c1ncccn1
A: 51

Q: Field: Ki (rat orexin 1 receptor (Rattus norvegicus, UniProt P56718)). Entry: C[C@H]1[C@H](Nc2cnc(C(F)(F)F)cn2)CCCN1C(=O)c1ccc(F)cc1-c1ncco1 (relative stereo)
A: 67

Q: Field: Ki (rat orexin 1 receptor (Rattus norvegicus, UniProt P56718)). Entry: C[C@H]1[C@H](Oc2ccc(C(F)(F)F)cn2)CCCN1C(=O)c1c(F)cccc1-c1ncccn1
A: 45

Q: Field: Ki (rat orexin 1 receptor (Rattus norvegicus, UniProt P56718)). Entry: Cc1cnc(-n2nccn2)c(C(=O)N2CCC[C@@H](Oc3ccc(Cl)cn3)[C@@H]2C)c1
A: 38

Q: Field: Ki (rat orexin 1 receptor (Rattus norvegicus, UniProt P56718)). Entry: Cc1ccc(-n2nccn2)c(C(=O)N2CCC[C@@H](Oc3cnc(C(F)(F)F)cn3)[C@@H]2C)n1
A: 34

Q: Field: Ki (rat orexin 1 receptor (Rattus norvegicus, UniProt P56718)). Entry: C[C@H]1[C@H](Nc2ccc(C(F)(F)F)cn2)CCCN1C(=O)c1ccc(F)cc1-n1nccn1 (relative stereo)
A: 27
